Test system: AR 1.0 cells
Test: Potentiation of doxorubicin toxicity (fixed doxorubicin 0.86 μM, proliferation, sulphorhodamine B)
Format: cell-based, mouse
Details: ar 1.0 cells, 96 h
Text: Compounds of formula (I) were examined for their ability to potentiate the toxicity of doxorubicin in AR 1.0 cells.
measurementLabel: IC50

Give recorded IC50. Cn1c(=O)/c(=C/c2ccc(C(=O)Nc3ccc(CCN4CCC(O)(c5ccc(Cl)cc5)CC4)cc3)cc2)[nH]c(=O)/c1=C/c1ccccc1 [Compound 9079] 1700 nM

* * *

Tested on: AR 1.0 cells
Test: Potentiation of doxorubicin toxicity (fixed doxorubicin 0.86 μM, proliferation, sulphorhodamine B)
Type: cell-based, mouse
Conditions: with doxorubicin 0.86 μM; four day incubation; 5760 min; read-out: Toxicity with cytotoxic agent (IC50)
pIC50: −log10 of the molar value. Structures can show the parent of a compound that is named as a salt.
So basically every entry gets a class from its pIC50, ranges being b0 = under 6, b1 = from 6 up to 7, b2 = 7 and over

Which category fits this record: COc1cc2c(cc1OC)CN(Cc1ccc(NC(=O)c3ccc(/C=c4\[nH]c(=O)/c(=C/c5ccccc5)n(C)c4=O)cc3)cc1)CC2.Cl [Compound 9064, hydrochloride] b2

Which category fits this record: COc1ccc(CCN(C)CCNC(=O)c2cccc(/C=c3\[nH]c(=O)/c(=C/c4ccccc4)n(C)c3=O)c2)cc1OC b0

Which category fits this record: COc1cc2c(cc1OC)CN(CCc1ccc(NC(=O)c3cccc(/C=c4\[nH]c(=O)/c(=C/c5ccccc5)n(C)c4=O)c3)cc1)CC2.Cl [Compound 9051, hydrochloride] b2

Which category fits this record: COc1cc2c(cc1OC)CN(CCc1ccc(C(=O)Nc3ccc(/C=c4\[nH]c(=O)/c(=C/c5ccccc5)n(C)c4=O)cc3)cc1)CC2 b2

Which category fits this record: COc1cc2c(cc1OC)CN(CCc1ccc(/C=c3\[nH]c(=O)/c(=C/c4ccccc4)n(C)c3=O)cc1)CC2 b0

Which category fits this record: COc1cc2c(cc1OC)CN(Cc1ccc(NC(=O)c3cccc(/C=c4\[nH]c(=O)/c(=C/c5ccccc5)n(C)c4=O)c3)cc1)CC2 b0

Which category fits this record: CN(CCNC(=O)c1cccc(/C=c2\[nH]c(=O)/c(=C/c3ccccc3)n(C)c2=O)c1)CC(c1ccccc1)c1ccccc1 b1

Which category fits this record: COc1cc2c(cc1OC)CN(CCc1ccc(COc3ccc(/C=c4\[nH]c(=O)/c(=C/c5ccccc5)n(C)c4=O)cc3)cc1)CC2 b1

Which category fits this record: COc1cc2c(cc1OC)CN(CCc1ccc(COc3cccc(/C=c4\[nH]c(=O)/c(=C/c5ccccc5)n(C)c4=O)c3)cc1)CC2 b1

Which category fits this record: Cn1c(=O)/c(=C/c2ccc(C(=O)Nc3ccc(N4CCOCC4)cc3)cc2)[nH]c(=O)/c1=C/c1ccccc1 [Compound 9054, hydrochloride] b0

* * *

Tested on: AR 1.0 cells
Assay: Potentiation of doxorubicin toxicity (fixed doxorubicin 0.86 μM, proliferation, sulphorhodamine B)
Assay type: cell-based, mouse
Details: with doxorubicin 0.86 μM; four day incubation; 5760 min; read-out: Toxicity with cytotoxic agent (IC50)
Text: Compounds of formula (I) were examined for their ability to potentiate the toxicity of doxorubicin in AR 1.0 cells.
Where a name gives a salt, the structure may show the parent alone.
measurementLabel: pIC50
// pIC50: -log10(molar conc.)

Lab note: AR 1.0 cells assay, enter pIC50 for Cn1c(=O)/c(=C/c2ccc(C(=O)N3CCN(c4ncccn4)CC3)cc2)[nH]c(=O)/c1=C/c1ccccc1 here 6.10

Lab note: AR 1.0 cells assay, enter pIC50 for COc1ccc(CCN(C)CCc2ccc(NC(=O)c3cccc(/C=c4\[nH]c(=O)/c(=C/c5ccccc5)n(C)c4=O)c3)cc2)cc1OC here 6.00

Lab note: AR 1.0 cells assay, enter pIC50 for Cn1c(=O)/c(=C/c2ccc(C(=O)NCCN3CCc4ccccc4C3)cc2)[nH]c(=O)/c1=C/c1ccccc1 [Compound 9116, hydrochloride] here 6.00

Lab note: AR 1.0 cells assay, enter pIC50 for Cn1c(=O)/c(=C/c2cccc(C(=O)Nc3ccc(CCN4CCN(c5ccccc5)CC4)cc3)c2)[nH]c(=O)/c1=C/c1ccccc1 here 7.00

Value source: patent US5935955A
